assay: Reversal of P-gp-mediated multidrug resistance in human KBV cells assessed as potentiation of irinotecan-induced cytotoxicity by measuring irinotecan IC50 at 5 uM after 72 hrs by MTT assay (Rvb = 49.2 +/- 0.46 nM)
test readout: IC50 (µM)

smiles str	obs value
CC(=O)O[C@H]1C[C@@]2(C)[C@@H](C[C@@H](O)[C@H]3[C@@]4(C)CC[C@@H](O)[C@@H](C)[C@@H]4CC[C@@]32C)/C1=C(\CCC=C(C)C)C(=O)OCc1ccccc1	37.2
